Hey, just so you know, these numbers are from ChEMBL document CHEMBL2150989.

# protocol: Apparent permeability from apical to basolateral side of human Caco2 cells at compound, Lipoid S100 and pluronic f127 ratio 1:1:1 using HBSS buffer
# Format: ADME, cell-based
# protocol-conditions: Caco-2
observable: Papp A→B (×10⁻⁶ cm/s)
Numbers only, in ×10⁻⁶ cm/s.

Name the recorded Papp A→B of the item C[C@H]1[C@H](C)CC[C@]2(C)CC[C@]3(C)C(=CC(=O)[C@@H]4[C@@]5(C)CC[C@@H](O)[C@](C)(C(=O)O)[C@@H]5CC[C@]43C)[C@H]12 in your answer. 2.9

Moving on to the next compound.
Name the recorded Papp A→B of the item CC(=O)O[C@@H]1CC[C@@]2(C)[C@@H](CC[C@]3(C)[C@@H]2C(=O)C=C2[C@@H]4[C@@H](C)[C@H](C)CC[C@]4(C)CC[C@]23C)[C@@]1(C)C(=O)O in your answer. 2.5

---

# protocol: Permeability from apical to basolateral side of human Caco2 cells assessed as mass balance at compound, Lipoid S100 and gelucire 44/14 ratio 1:1:1
# Format: ADME, cell-based
# protocol-conditions: Caco-2, read-out: permeability
observable: recovery (%)
One number for each entry, in %.

Name the recorded recovery of the item CC(=O)O[C@@H]1CC[C@@]2(C)[C@@H](CC[C@]3(C)[C@@H]2C(=O)C=C2[C@@H]4[C@@H](C)[C@H](C)CC[C@]4(C)CC[C@]23C)[C@@]1(C)C(=O)O [AKBA] in your answer. 90.7

Next:
Name the recorded recovery of the item C[C@H]1[C@H](C)CC[C@]2(C)CC[C@]3(C)C(=CC(=O)[C@@H]4[C@@]5(C)CC[C@@H](O)[C@](C)(C(=O)O)[C@@H]5CC[C@]43C)[C@H]12 [11-KETO BOSWELLIC ACID] in your answer. 92

---

# protocol: Solubility of the compound in fasted state simulated intestinal fluid at compound to Lipoid S100 ratio 1:3 after 3 hrs by HPLC analysis in presence of 10:1 molar ratio of Lipoid S100 to tween 80
# Format: physicochemical
observable: solubility at 3 h (µg/mL)
Give bare numbers, in µg/mL.

Name the recorded solubility at 3 h of the item CC(=O)O[C@@H]1CC[C@@]2(C)[C@@H](CC[C@]3(C)[C@@H]2C(=O)C=C2[C@@H]4[C@@H](C)[C@H](C)CC[C@]4(C)CC[C@]23C)[C@@]1(C)C(=O)O in your answer. 44.7

Moving on to the next compound.
Name the recorded solubility at 3 h of the item C[C@H]1[C@H](C)CC[C@]2(C)CC[C@]3(C)C(=CC(=O)[C@@H]4[C@@]5(C)CC[C@@H](O)[C@](C)(C(=O)O)[C@@H]5CC[C@]43C)[C@H]12 in your answer. 246

---

# protocol: Apparent permeability from apical to basolateral side of human Caco2 cells at compound, Lipoid S100 and pluronic f127 ratio 1:1:1 using modified fasted state simulated intestinal fluid
# Assay type: ADME, cell-based
# protocol-conditions: Caco-2
observable: Papp A→B

Name the recorded Papp A→B of the item C[C@H]1[C@H](C)CC[C@]2(C)CC[C@]3(C)C(=CC(=O)[C@@H]4[C@@]5(C)CC[C@@H](O)[C@](C)(C(=O)O)[C@@H]5CC[C@]43C)[C@H]12 [11-KETO BOSWELLIC ACID] in your answer. 3.7 ×10⁻⁶ cm/s

Moving on to the next molecule.
Name the recorded Papp A→B of the item CC(=O)O[C@@H]1CC[C@@]2(C)[C@@H](CC[C@]3(C)[C@@H]2C(=O)C=C2[C@@H]4[C@@H](C)[C@H](C)CC[C@]4(C)CC[C@]23C)[C@@]1(C)C(=O)O [AKBA] in your answer. 3.1 ×10⁻⁶ cm/s

---

# protocol: Permeability from apical to basolateral side of human Caco2 cells assessed as mass balance at compound, Lipoid S100 and pluronic f68 ratio 1:1:1
# Assay type: ADME, cell-based
# protocol-conditions: Caco-2, read-out: permeability
observable: recovery (%)
Numbers only, in %.

Name the recorded recovery of the item C[C@H]1[C@H](C)CC[C@]2(C)CC[C@]3(C)C(=CC(=O)[C@@H]4[C@@]5(C)CC[C@@H](O)[C@](C)(C(=O)O)[C@@H]5CC[C@]43C)[C@H]12 [11-KETO BOSWELLIC ACID] in your answer. 90.1

Moving on to the next molecule.
Name the recorded recovery of the item CC(=O)O[C@@H]1CC[C@@]2(C)[C@@H](CC[C@]3(C)[C@@H]2C(=O)C=C2[C@@H]4[C@@H](C)[C@H](C)CC[C@]4(C)CC[C@]23C)[C@@]1(C)C(=O)O [AKBA] in your answer. 87.8

---

Could you please report measured solubility at 3 h for the items listed next?
# protocol: Solubility of the compound in fasted state simulated intestinal fluid at compound to Lipoid S100 ratio 1:1 after 3 hrs by HPLC analysis
# Type: physicochemical
Answers are plain numbers, in µg/mL.

Name the recorded solubility at 3 h of the item C[C@H]1[C@H](C)CC[C@]2(C)CC[C@]3(C)C(=CC(=O)[C@@H]4[C@@]5(C)CC[C@@H](O)[C@](C)(C(=O)O)[C@@H]5CC[C@]43C)[C@H]12 in your answer. 124

Next:
Name the recorded solubility at 3 h of the item CC(=O)O[C@@H]1CC[C@@]2(C)[C@@H](CC[C@]3(C)[C@@H]2C(=O)C=C2[C@@H]4[C@@H](C)[C@H](C)CC[C@]4(C)CC[C@]23C)[C@@]1(C)C(=O)O in your answer. 24.2

---

# protocol: Apparent permeability from apical to basolateral side of human Caco2 cells at compound, Lipoid S100 and pluronic f127 ratio 1:1:1 using modified fed state simulated intestinal fluid
# Assay type: ADME, cell-based
# protocol-conditions: Caco-2
observable: Papp A→B (×10⁻⁶ cm/s)
Answers are plain numbers, in ×10⁻⁶ cm/s.

Name the recorded Papp A→B of the item CC(=O)O[C@@H]1CC[C@@]2(C)[C@@H](CC[C@]3(C)[C@@H]2C(=O)C=C2[C@@H]4[C@@H](C)[C@H](C)CC[C@]4(C)CC[C@]23C)[C@@]1(C)C(=O)O in your answer. 2.8

Moving on to the next molecule.
Name the recorded Papp A→B of the item C[C@H]1[C@H](C)CC[C@]2(C)CC[C@]3(C)C(=CC(=O)[C@@H]4[C@@]5(C)CC[C@@H](O)[C@](C)(C(=O)O)[C@@H]5CC[C@]43C)[C@H]12 in your answer. 3.2

---

# protocol: Solubility of the compound in water at compound to Lipoid S100 ratio 1:3 after 3 hrs by HPLC analysis
# Format: physicochemical
Could you please report measured solubility at 3 h for the items listed next?
Answers are plain numbers, in µg/mL.

Name the recorded solubility at 3 h of the item C[C@H]1[C@H](C)CC[C@]2(C)CC[C@]3(C)C(=CC(=O)[C@@H]4[C@@]5(C)CC[C@@H](O)[C@](C)(C(=O)O)[C@@H]5CC[C@]43C)[C@H]12 in your answer. 192

Moving on to the next compound.
Name the recorded solubility at 3 h of the item CC(=O)O[C@@H]1CC[C@@]2(C)[C@@H](CC[C@]3(C)[C@@H]2C(=O)C=C2[C@@H]4[C@@H](C)[C@H](C)CC[C@]4(C)CC[C@]23C)[C@@]1(C)C(=O)O in your answer. 51.4

---

# protocol: Solubility of the compound in fasted state simulated intestinal fluid at compound, Lipoid S100 and pluronic f127 ratio 1:1:1 after 3 hrs by HPLC analysis
# Format: physicochemical
observable: solubility at 3 h (µg/mL)
One number for each entry, in µg/mL.

Name the recorded solubility at 3 h of the item CC(=O)O[C@@H]1CC[C@@]2(C)[C@@H](CC[C@]3(C)[C@@H]2C(=O)C=C2[C@@H]4[C@@H](C)[C@H](C)CC[C@]4(C)CC[C@]23C)[C@@]1(C)C(=O)O [AKBA] in your answer. 65.3

Next:
Name the recorded solubility at 3 h of the item C[C@H]1[C@H](C)CC[C@]2(C)CC[C@]3(C)C(=CC(=O)[C@@H]4[C@@]5(C)CC[C@@H](O)[C@](C)(C(=O)O)[C@@H]5CC[C@]43C)[C@H]12 [11-KETO BOSWELLIC ACID] in your answer. 395

---

# protocol: Permeability from apical to basolateral side of human Caco2 cells assessed as mass balance at compound, Lipoid S100 and tween 80 ratio 1:1:1
# Assay type: ADME, cell-based
# protocol-conditions: Caco-2, read-out: permeability
Could you please report measured recovery for the items listed next?
Numbers only, in %.

Name the recorded recovery of the item C[C@H]1[C@H](C)CC[C@]2(C)CC[C@]3(C)C(=CC(=O)[C@@H]4[C@@]5(C)CC[C@@H](O)[C@](C)(C(=O)O)[C@@H]5CC[C@]43C)[C@H]12 in your answer. 96.3

Moving on to the next molecule.
Name the recorded recovery of the item CC(=O)O[C@@H]1CC[C@@]2(C)[C@@H](CC[C@]3(C)[C@@H]2C(=O)C=C2[C@@H]4[C@@H](C)[C@H](C)CC[C@]4(C)CC[C@]23C)[C@@]1(C)C(=O)O in your answer. 93.3
